Listed next: entries and their corresponding MCL-1% Bound.
target: MCL-1ΔNΔC (Homo sapiens); assay: High-throughput competitive FP binding screen, FITC-MCL-1 SAHB/MCL-1ΔNΔC interaction; parameters: the C-terminal alpha-helix was deleted from each of these constructs; GST (N, cleaved yes); made in house; conditions: FITC-MCL-1 SAHB/MCL-1ΔNΔC interaction pair, competitive FP screen
Sequence (Q07820 172-320 limits assumed, stated change not applied): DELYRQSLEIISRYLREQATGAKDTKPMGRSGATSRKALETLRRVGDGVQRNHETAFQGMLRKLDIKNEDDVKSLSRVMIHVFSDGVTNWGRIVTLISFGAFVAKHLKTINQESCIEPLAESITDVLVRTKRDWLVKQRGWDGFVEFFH
Please answer in the form of a number followed by its unit of measurement.

Recorded MCL-1% Bound, per entry:
> print(dat)
                                   compound  result
1                   O=C1NC(=S)C(=C2CCCC2)S1  38.05%
2  O=c1cc(-c2ccccc2)oc2cc(O)c(O)c(O)c12 [drawing 161]  10.32%
3  CCOC(=O)c1ccc2nc(NC(=O)CSc3nc(C)cc(=O)[nH]3)sc2c1  56.55%
4  CC1(C)CC(=O)C2=C(C1)Nc1ccc3ncccc3c1C2c1ccc(O)c(O)c1 (centres unmarked)  48.32%

// moving on: another record for MCL-1% Bound
Input: Identify MCL-1% Bound associated with the compound COc1cc(OC)c(C2=NOC(C(=O)Nc3cc(C)n(CC(=O)NCc4ccco4)n3)C2)cc1Cl (centres unmarked)
Output: −14.5%

###

In this section we review reported BCL-XL % Bound values for a set of compounds.
target: BCL-XLΔC (Homo sapiens, UniProt Q07817); test: High-throughput competitive FP binding screen, FITC-BAD BH3/BCL-XLΔC interaction; conditions: FITC-BAD BH3/BCL-XLΔC interaction pair, competitive FP screen
Sequence (Q07817 1-212 limits assumed, stated change not applied): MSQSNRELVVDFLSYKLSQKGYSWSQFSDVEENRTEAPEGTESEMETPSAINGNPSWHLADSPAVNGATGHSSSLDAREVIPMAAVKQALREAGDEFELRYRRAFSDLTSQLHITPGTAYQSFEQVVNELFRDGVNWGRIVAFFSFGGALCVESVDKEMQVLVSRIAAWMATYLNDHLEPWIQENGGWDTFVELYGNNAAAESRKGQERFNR
Field format: number, assumed %, no unit text.

Recorded results for 4 compounds are shown here.
COMPOUND	BCL-XL % Bound (%)
O=C(Nc1ccccc1)C(C(F)(F)F)C(F)(F)F	82.61
CCOC(=O)c1cc(C#N)c(SCC(=O)c2cc3ccccc3oc2=O)[nH]c1=O	100.2
O=C(/C=C/c1ccco1)Nc1cccc(-c2nc3ccccc3o2)c1	112
CCOC(=O)C1=C(NC(=O)c2ccccc2)S/C(=C\c2ccc(C)o2)C1=O	101.2

Input: Query BCL-XL % Bound for O=c1oc2c(O)c(O)cc3c(=O)oc4c(O)c(O)cc1c4c23 [drawing 20]
Output: 90.58

Input: Identify measured BCL-XL % Bound associated with "Oc1ccc(/C=N/NC(=S)Nc2ccc(Cl)cc2Cl)c(O)c1O"
Output: 87.36

Input: Determine its reported BCL-XL % Bound: "c1cc2nsnc2c2c1Nc1nc3nonc3nc1N2"
Output: 57.68

Input: Report BCL-XL % Bound for O=C(OCC1O[C@H](OC(=O)c2cc(O)c(O)c(OC(=O)c3cc(O)c(O)c(O)c3)c2)[C@H](OC(=O)c2cc(O)c(O)c(OC(=O)c3cc(O)c(O)c(O)c3)c2)[C@@H](OC(=O)c2cc(O)c(O)c(OC(=O)c3cc(O)c(O)c(O)c3)c2)[C@@H]1OC(=O)c1cc(O)c(O)c(OC(=O)c2cc(O)c(O)c(O)c2)c1)c1cc(O)c(O)c(OC(=O)c2cc(O)c(O)c(O)c2)c1 (some centres unmarked) [drawing 25]
Output: 98.26

Input: Fill in BCL-XL % Bound for record "N#CC(C#N)=C(C#N)c1ccc(-c2ccccc2)[nH]1"
Output: 90.7

Input: Consider the compound "COc1ccc(C(=O)c2sc3cc(-c4ccco4)cc(C(F)(F)F)c3c2N)cc1OC" and give its recorded BCL-XL % Bound.
Output: 85.27

Input: # return recorded BCL-XL % Bound for input CC1CCc2c(sc3[nH]c(=S)sc(=N)c23)C1 (centres unmarked)
Output: 83.66

Input: Output measured BCL-XL % Bound for this item: "COc1cc2c(O)c3c(c(-c4ccc5c(c4)OCO5)c2cc1OC)C(=O)OC3"
Output: 104.6

Input: Tell me BCL-XL % Bound reported for "Cc1nc2c(C(=O)NCc3ccccc3Cl)cnn2c(O)c1Cl"
Output: 94.42

Input: Report measured BCL-XL % Bound; entry is CCOc1ccc(NC(=O)CC2C(=O)N(Cc3ccco3)C(=S)N2CCNC(C)=O)cc1 (centres unmarked)
Output: 102.4

Input: Identify measured BCL-XL % Bound corresponding to "O=S(=O)(Nc1ccc(O)c2ccccc12)c1ccccc1"
Output: 96.39

Input: Provide one value: measured BCL-XL % Bound of "O=C(NN=C1CCCC1)c1ccccc1NS(=O)(=O)c1cccs1"
Output: 92.34

Input: Specify measured BCL-XL % Bound for "O=C(c1ccccc1)c1ccc2nc(-c3ccco3)c(-c3ccco3)nc2c1" .
Output: 101.3

Input: Report BCL-XL % Bound for "O=C(c1ccc(O)cc1)N1CCN(c2cccc(Cl)c2)CC1"
Output: 90.71

Input: Kindly indicate its recorded BCL-XL % Bound. Item: Oc1cccc(C(c2ccc3cccnc3c2O)N2CCCC2)c1 (centres unmarked)
Output: 106.4

Input: Answer with the recorded BCL-XL % Bound of "O=C1NC(=S)C(=C2CCCC2)S1" only.
Output: 93.34

Input: Supply BCL-XL % Bound value. Item: "O=C(CCN1C(=O)/C(=C\C=C\c2ccco2)SC1=S)Nc1ccc(C(=O)O)c(O)c1"
Output: 76.09

Input: Determine its reported BCL-XL % Bound: O=C(OCC1O[C@H](OC(=O)c2cc(O)c(O)c(OC(=O)c3cc(O)c(O)c(O)c3)c2)[C@H](OC(=O)c2cc(O)c(O)c(OC(=O)c3cc(O)c(O)c(O)c3)c2)[C@@H](OC(=O)c2cc(O)c(O)c(OC(=O)c3cc(O)c(O)c(O)c3)c2)[C@@H]1OC(=O)c1cc(O)c(O)c(OC(=O)c2cc(O)c(O)c(O)c2)c1)c1cc(O)c(O)c(OC(=O)c2cc(O)c(O)c(O)c2)c1 (some centres unmarked) [drawing 178]
Output: 98.26

Input: Note BCL-XL % Bound for the compound shown: "Clc1cccc2c(N3CCCCCC3)cnnc12"
Output: 85.37

###

test system: MCL-1ΔNΔC; test: High-throughput competitive FP binding screen, FITC-MCL-1 SAHB/MCL-1ΔNΔC interaction; conditions: selectivity for MCL-1ΔNΔC over BCL-XLΔC targeting (BCL-XL % Bound minus MCL-1 % Bound)
ASSAY ENDPOINT: Spec Values

Below, 3 molecules whose answers are already recorded.
> print(dat)
                                   molecule  result
1  CC(C)(C)c1cc(Cc2ccc(O)c(O)c2)cc(C(C)(C)C)c1O   108.1
2  O=S(=O)(Nc1ccc(Oc2ccc(Cl)cc2C2CCCCC2)nc1)c1cccc2nonc12    82.7
3  CCOC(=O)C1=C(Nc2cccc(Cl)c2)S/C(=C\c2ccco2)C1=O      63

Input: Using the record for "Cc1ccc(C2=NC(=O)/C(=C/c3cc(O)c(O)c(Br)c3)S2)cc1" , state its measured Spec Values.
Output: 93.98

Input: Name the recorded Spec Values of the molecule listed here: "O=C(OCc1ccc(F)cc1)c1cc(-c2ccco2)nc2ccccc12"
Output: 79.65

Input: Identify measured Spec Values associated with COC(=O)c1ccc(C(c2cc3c(cc2O)OCO3)N2CCN(c3ccccc3)CC2)cc1 (stereo not shown)
Output: 47.71

Input: // Input: "O=c1[nH]cnc2ccc(Br)cc12" . Output its Spec Values only.
Output: 59.02

Input: Return Spec Values for the following molecule: "CCCN1C(=O)/C(=C/c2ccc(-c3cccc(C(F)(F)F)c3)o2)NC1=S"
Output: 57.72

Input: Supply reported Spec Values belonging to this molecule: COc1ccc2c(c1)CC[C@@H]1C2CC[C@@]2(C)C1CC[C@@H]2NCCCCCCN1C(=O)CCC1=O (stereo partly shown) [drawing 18]
Output: 49.67

Input: Please give measured Spec Values of the following entry: "CN1CCC(N(C)Cc2cc(C(C)(C)C)c(O)c(C(C)(C)C)c2)CC1"
Output: 45.97

###

tested on: MCL-1ΔNΔC; assay: High-throughput competitive FP binding screen, FITC-MCL-1 SAHB/MCL-1ΔNΔC interaction; details: selectivity for MCL-1ΔNΔC over BCL-XLΔC targeting (BCL-XL % Bound minus MCL-1 % Bound)
Reported Spec Values values for a set of molecules
Respond with the number and no other words.

Input: Specify the recorded Spec Values for "Cc1occc1-c1nnc2sc(Cc3cccc4ccccc34)nn12" , system: MCL-1ΔNΔC.
Output: 70.8

###

molecular target: BCL-XLΔC (Homo sapiens, UniProt Q07817); assay: High-throughput competitive FP binding screen, FITC-BAD BH3/BCL-XLΔC interaction
The entries below are paired with their reported BCL-XL % Bound.
Give just the number in %; leave the unit off.

Examples with answers:
> print(dat)
                                   compound                              target.desc  assay.endpoint  number
1  CCOc1cc(C=C2C(=O)N(C)C(=S)N(C)C2=O)ccc1OC(C)C(=O)O (stereo not shown)  BCL-XLΔC (Homo sapiens, UniProt Q07817)  BCL-XL % Bound    98.2
2  CCN1C(=O)C(=Cc2ccc(O)c(I)c2)C(=O)N(CC)C1=S  BCL-XLΔC (Homo sapiens, UniProt Q07817)  BCL-XL % Bound   100.4
3  N#C/C(=C\c1ccc(O)c(O)c1)C(N)=S [Tyrphostin 47, reference compound]  BCL-XLΔC (Homo sapiens, UniProt Q07817)  BCL-XL % Bound   100.8
4  CSc1ncc(/C=C2/C(=O)NC(=O)N(C3CCCCC3)C2=O)cn1  BCL-XLΔC (Homo sapiens, UniProt Q07817)  BCL-XL % Bound      99
5  N#C/C(=C\c1ccc(O)c(O)c1)C(N)=S [drawing 16]  BCL-XLΔC (Homo sapiens, UniProt Q07817)  BCL-XL % Bound   100.8

Input: Given CC1=C(O)C(=O)C=C2C1=CC=C1[C@@]2(C)CC[C@@]2(C)[C@@H]3C[C@](C)(C(=O)O)CC[C@]3(C)CC[C@]12C [Celastrol, reference compound] , respond with its BCL-XL % Bound.
Output: 97.09

Input: Return value of BCL-XL % Bound for input "O=C1NC(=O)N(CCc2ccc(F)cc2)C(=O)/C1=C\c1ccc(O)c(O)c1" , no commentary.
Output: 81.34

Input: Query BCL-XL % Bound for Oc1c(Cl)cc(Cl)c(Cl)c1Cc1c(O)c(Cl)cc(Cl)c1Cl [drawing 274]
Output: 100.4
